Origin of the recorded values: PubChem BioAssay AID1159580

# assay protocol: chemical genetic growth profiling, strain panel (AID 1159580);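 further: tested at 20 µM; growth read once vehicle control cultures reached saturation at 30 °C; 1 = growth at the plate median or of vehicle wells; lower values mean less growth of the strain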
# condition: S. cerevisiae deletion strains, growth OD, locus YOR316C, strain cot1
The campaign covered roughly 5,500 compounds. About 2,000 (36%) were called active. Inconclusive results (about 18%) are left out. No stated cut-off is given here; in the data, active means normalized growth mostly below about 0.91 (no sharp cut-off); inconclusive means no clear call, values can overlap the other calls; inactive means mostly above about 0.92. The list shows a part of the results. Where a SMILES comes first, the peptide text is derived from it. [ ]: non-standard residue; d: D form. Orn = NCCC[CH](N)C(=O)O
Choose the fitting class; nothing outside Yes for active, No for inactive is accepted.

>>> assigned_category("CN1CCN(CC(=O)N2c3ccccc3C(=O)Nc3cccnc32)CC1")
"No"
>>> assigned_category("COc1cc2c(cc1OC)[C@@]13CCN4CC5=CCOC6CC(=O)N2C1[C@H]6[C@H]5C[C@H]43 (stereo partly specified)")
"No"
>>> assigned_category("CN(C)CCc1c[nH]c2ccc(CS(=O)(=O)N3CCCC3)cc12")
"No"
>>> assigned_category("CC1=CC(=O)C2=C(C)CC(O)C3C(C)C(=O)OC3C12 (stereo unspecified)")
"No"
>>> assigned_category("CCNc1nc(Cl)nc(NCC)n1")
"No"

Hey, what did the test say about `CC(=O)[O][Hg][c]1ccccc1` ?
Yes

Hey, what did the test say about CC(=O)[C@@]1(O)CCC2C3CCC4=CC(=O)CC[C@]4(C)C3CC[C@@]21C (stereo partly specified) ?
No

Hey, what did the test say about CC(C)CC1NC(=O)C(CCCN)NC(=O)C(C(C)C)NC(=O)C2CCCN2C(=O)C(Cc2ccccc2)NC(=O)C(CC(C)C)NC(=O)C(CCCN)NC(=O)C(C(C)C)NC(=O)C2CCCN2C(=O)C(Cc2ccccc2)NC1=O (stereo unspecified) (cyclo(FPV[Orn]LFPV[Orn]L); configuration not given here) ?
No

Hey, what did the test say about CC1(C)C(=O)[C@@H]2O[C@@H]2[C@@]2(C)C1CC(=O)[C@]1(C)C2CC[C@@]2(C)[C@H](c3ccoc3)OC(=O)[C@H]3O[C@]321 (stereo partly specified) ?
No

Hey, what did the test say about `COc1cnc(NS(=O)(=O)c2ccc(N)cc2)nc1` ?
No

Hey, what did the test say about `NC(=O)N1c2ccccc2C=Cc2ccccc21` ?
No

* * *

# assay protocol: chemical genetic growth profiling, strain panel (AID 1159580);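 further: tested at 20 µM; growth read once vehicle control cultures reached saturation at 30 °C; 1 = growth at the plate median or of vehicle wells; lower values mean less growth of the strain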
# condition: S. cerevisiae deletion strains, growth OD, locus YAL021C, strain ccr4, active compounds read low
Hit rate of the full screen: of about 5,500 compounds, about 2,000 (36%) were called active. Not shown: some 18% with an inconclusive outcome. This is one part of the list. *1 amine or outer side, *2 acyl side, *3 side chain or, on linkers, in order; H or OH if unused. Where a SMILES comes first, the peptide text is derived from it. Bridges are numbered along the chain shown (N, C = ends). [ ]: non-standard residue; d: D form. The star is where a group is joined. ξ: configuration not given here. ΔAla(E,3-NHCONH2) = NC(=O)N/C=C(/N)C(=O)O; X2 = NC1=NCCC(C(N[*:1])C(=O)[*:2])N1; ξβ3hOrn = NCCCC(N)CC(=O)*; Dap = NC[CH](N)C(=O)O
So I've got a bunch of compounds here, and I need their normalized growth values.
One number for each entry.

Use the examples below as a reference point.
>>> measured_value("NCCCC(N)CC(=O)NCC1NC(=O)C(CO)NC(=O)C(N)CNC(=O)C(C2CCN=C(N)N2)NC(=O)/C(=C\\NC(N)=O)NC1=O (stereo not drawn) (H-[Dap]S[Dap](ξβ3hOrn)[ΔAla(E,3-NHCONH2)][X2]; lactam 1-C; configuration not given here)")
1.01
>>> measured_value("COc1ccc(C(=O)c2ccccc2)c(O)c1O")
0.981

For each of the items listed, what is its normalized growth?
1. CN1C(=O)CCS(=O)(=O)C1c1ccc(Cl)cc1 (centres undefined)
2. CC1(C)C(=O)[C@@H]2C[C@@]3(O)C4=CC(=O)O[C@@H](c5ccoc5)[C@]4(C)CCC3[C@@](C)(C2=O)[C@H]1CC(=O)O (some centres undefined)
3. CCOc1ccc(C(=O)c2ccc(OC)c(O)c2O)cc1

1: 0.981; 2: 0.988; 3: 0.958

For each of the items listed, what is its normalized growth?
1. CCOc1ccc(C(=O)c2ccc(O)c(O)c2O)cc1
2. CCOc1ccc(C(=O)c2cc(O)c(OC)c(OC)c2O)cc1
3. CCOc1ccc(NC(C)=O)cc1

1. 0.754
2. 1
3. 1.01

# normalized growth lookup, item COc1cc2c(cc1OC)[C@@H]1C(=O)c3ccc4c(c3O[C@@H]1CO2)CC(C(C)C)O4 (some centres undefined)
0.989

* * *

# assay protocol: chemical genetic growth profiling, strain panel (AID 1159580);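 further: tested at 20 µM; growth read once vehicle control cultures reached saturation at 30 °C; 1 = growth at the plate median or of vehicle wells; lower values mean less growth of the strain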
# condition: S. cerevisiae deletion strains, growth OD, locus YLR342W, strain FKS1 (second series), active compounds read low
Out of some 5,500 compounds screened, about 2,000 (36%) were called active. Not shown: some 18% with an inconclusive outcome. This is one part of the list.
property name: normalized growth
One number for each entry.

Use the examples below as a reference point.
>>> measured_value("c1ccc([C@H]2CN3CCSC3=N2)cc1")
1.02
>>> measured_value("COc1cc2c(cc1OC)-c1c(oc3c4c(ccc3c1=O)OC(C(C)C)C4)CO2 (stereo not given)")
1.1
>>> measured_value("CC[C@H]1OC(=O)[C@H](C)[C@@H](O[C@H]2C[C@@](C)(OC)[C@@H](O)[C@H](C)O2)[C@H](C)[C@@H](O[C@@H]2O[C@H](C)C[C@H](N(C)C)[C@H]2O)[C@](C)(O)C[C@@H](C)[C@@H]2N[C@@H](COCCOC)O[C@H]([C@H]2C)[C@]1(C)O")
1.02
>>> measured_value("CCCc1nc2c(C)cc(-c3nc4ccccc4n3C)cc2n1Cc1ccc(-c2ccccc2C(=O)O)cc1")
1
>>> measured_value("COc1ccc(C(=O)O)c(O)c1OC")
1.01
>>> measured_value("NC(=O)N1c2ccccc2C=Cc2ccccc21")
1.12

For each of the items listed, what is its normalized growth?
1. Cc1c(NC(=O)c2cccnc2)c(=O)n(-c2ccccc2)n1C
2. COc1ccc(C(=O)c2ccccc2)c(O)c1O
3. CCOc1ccc(NC(C)=O)cc1

[1.09, 0.851, 0.957]

* * *

So I've got a bunch of molecules here, and I need their normalized growth values.
# assay protocol: chemical genetic growth profiling, strain panel (AID 1159580);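 further: tested at 20 µM; growth read once vehicle control cultures reached saturation at 30 °C; 1 = growth at the plate median or of vehicle wells; lower values mean less growth of the strain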
# condition: S. cerevisiae deletion strains, growth OD, locus YCR088W, strain abp1, active compounds read low
In all, about 5,500 compounds went through this assay and about 2,000 (36%) were called active. About 18% were inconclusive and are not listed. The list shows a part of the results.
Numbers only.

Use the examples below as a reference point.
>>> measured_value("O=C(CCBr)N1CCN(C(=O)CCBr)CC1")
1.01
>>> measured_value("NC[C@H]1O[C@H](O[C@H]2[C@H](O)[C@@H](O[C@H]3O[C@H](CO)[C@@H](O)[C@H](N)[C@H]3O)[C@H](N)C[C@@H]2N)[C@H](N)C[C@@H]1O")
1.01
>>> measured_value("O=C(NC1CCCCC1)NC1CCCCC1")
0.973
>>> measured_value("CC[C@@H](CO)NC(=O)[C@@H]1C=C2c3cccc4[nH]cc(c34)C[C@H]2N(C)C1")
0.998
>>> measured_value("c1ccc2c(Cc3c[nH]c4ccccc34)c[nH]c2c1")
0.632
>>> measured_value("COc1cc2cc3c4cc(OC)c(OC)cc4cc[n+]3c(C)c2cc1OC")
1.01

For each of the items listed, what is its normalized growth?
1. NC[C@H]1O[C@H](O[C@H]2C(O[C@@H]3O[C@H](CO)[C@@H](O)[C@H]3O)[C@@H](O)[C@H](N)C[C@@H]2N)[C@H](N)[C@@H](O)[C@@H]1O (stereo partly specified)
2. CC1=C(O)C(=O)C=C2C1=CC=C1[C@@]2(C)CC[C@@]2(C)[C@@H]3C[C@](C)(C(=O)O)CC[C@]3(C)CC[C@]12C
3. CC(=O)N[C@@H](Cc1c[nH]c2ccccc12)C(=O)O
4. OCc1c[nH]c2ccccc12
5. NCCc1c[nH]c2ccccc12
6. CC1(C)C=Cc2cc3ccc(=O)oc3cc2O1
7. NC1C[C@H]1c1ccccc1 (stereo partly specified)
8. Cc1cc(=O)n(-c2ccccc2)n1C

0.998
0.64
0.992
0.971
0.967
0.927
0.992
0.991

For each of the items listed, what is its normalized growth?
1. COC(=O)[C@]1(C)CC[C@]2(C)CC[C@]3(C)C4=CC=C5C(=CC(=O)C(O)=C5C)[C@]4(C)CC[C@@]3(C)[C@@H]2C1
2. NC(=O)NO

0.864
1.02
